Data credit: patent US20200157212A1

MEASUREMENT_TARGET: T1, Human ROBO1 RSK mutant overexpressed on HEK293 cells (human, UniProt Q9Y6N7 26-1651)
T1 construct: K137R and R139K already in the entry; also called ROBO1-RSK cells
T1 sequence (Q9Y6N7 other isoform, or with tags, fused parts or gaps mutant limits assumed): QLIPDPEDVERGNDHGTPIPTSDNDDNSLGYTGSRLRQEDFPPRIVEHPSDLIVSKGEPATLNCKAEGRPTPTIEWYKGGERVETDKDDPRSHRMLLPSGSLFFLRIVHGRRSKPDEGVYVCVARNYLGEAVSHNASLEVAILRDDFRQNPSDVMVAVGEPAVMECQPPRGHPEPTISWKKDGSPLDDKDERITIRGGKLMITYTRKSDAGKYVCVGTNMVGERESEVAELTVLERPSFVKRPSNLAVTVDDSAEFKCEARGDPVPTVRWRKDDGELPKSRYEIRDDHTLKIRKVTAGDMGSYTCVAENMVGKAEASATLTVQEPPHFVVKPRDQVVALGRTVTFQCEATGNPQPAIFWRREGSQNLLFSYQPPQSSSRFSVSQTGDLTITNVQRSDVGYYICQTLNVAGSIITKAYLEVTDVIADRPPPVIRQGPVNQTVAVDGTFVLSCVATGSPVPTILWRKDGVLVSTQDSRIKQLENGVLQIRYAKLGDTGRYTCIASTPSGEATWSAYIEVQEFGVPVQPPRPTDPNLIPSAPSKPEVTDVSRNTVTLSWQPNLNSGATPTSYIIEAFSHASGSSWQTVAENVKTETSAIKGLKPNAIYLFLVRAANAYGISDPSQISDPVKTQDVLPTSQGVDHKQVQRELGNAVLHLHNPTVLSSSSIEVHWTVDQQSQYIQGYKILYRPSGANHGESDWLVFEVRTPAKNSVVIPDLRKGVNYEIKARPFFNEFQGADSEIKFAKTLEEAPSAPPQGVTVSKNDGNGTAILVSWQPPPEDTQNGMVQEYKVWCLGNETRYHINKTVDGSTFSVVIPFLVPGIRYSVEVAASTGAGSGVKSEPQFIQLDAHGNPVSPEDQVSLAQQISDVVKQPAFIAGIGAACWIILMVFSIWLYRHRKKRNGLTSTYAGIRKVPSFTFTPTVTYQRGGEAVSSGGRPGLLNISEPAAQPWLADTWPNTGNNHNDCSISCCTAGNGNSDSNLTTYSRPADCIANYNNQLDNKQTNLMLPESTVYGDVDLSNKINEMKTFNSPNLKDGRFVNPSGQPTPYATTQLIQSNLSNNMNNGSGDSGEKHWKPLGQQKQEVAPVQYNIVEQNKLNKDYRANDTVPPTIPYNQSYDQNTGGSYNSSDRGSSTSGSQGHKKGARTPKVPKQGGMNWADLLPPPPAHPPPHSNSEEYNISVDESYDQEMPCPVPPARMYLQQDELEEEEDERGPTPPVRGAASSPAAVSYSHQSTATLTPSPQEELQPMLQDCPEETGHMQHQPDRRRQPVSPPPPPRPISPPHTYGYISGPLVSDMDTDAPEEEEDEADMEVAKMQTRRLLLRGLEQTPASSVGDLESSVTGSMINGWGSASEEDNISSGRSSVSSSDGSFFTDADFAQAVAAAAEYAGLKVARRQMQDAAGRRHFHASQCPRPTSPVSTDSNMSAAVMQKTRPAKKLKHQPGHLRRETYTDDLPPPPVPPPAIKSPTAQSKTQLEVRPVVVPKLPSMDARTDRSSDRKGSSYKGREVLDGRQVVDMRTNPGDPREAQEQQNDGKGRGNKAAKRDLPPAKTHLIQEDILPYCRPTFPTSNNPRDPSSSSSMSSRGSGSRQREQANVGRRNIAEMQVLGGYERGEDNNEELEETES
ASSAY_EXPLANATION: flow cytometry, Geo MFI ROBO1-RSK/ROBO2-KSR HEK293 cells, 2.5 µg/ml
Quick list: Fold Selectivity for RSK/KSR per entry.
Quick reminder: number only, in fold, skip the unit.

BINDER: Abcs5 (antibody, human IgG1, kappa, V domains shown, chain-shuffled IgG) VH: EVQLVQSGAEVKKPGASVKVSCKASGYTFTGYYMHWVRQAPGQGLEWMGWINPKNGDTEFPQKFQGRVTMTRDTSITTAYMDLSRLRSDDTAVYYCARESGDDAFDIWGQGTMVTVSS VL: DIVMTQSPSSLSASVGDRVTITCRASQSISSYLNWYQQKPGKAPKLLIYAASSLQSGVPSRFSGSGSGTDFTLTISSLQPEDFATYYCQQSLELGFGGGTKVEIKR
Fold Selectivity for RSK/KSR (fold): 6.7
--
BINDER: Abcs55 (antibody, human IgG1, kappa, V domains shown, chain-shuffled IgG) VH: EVQLVQSGAEVKKPGASVKVSCKASGYTFTGYYMHWVRQAPGQGLEWMGWINPKDGDTEFPQKFQGRVTMTRDTSITTAYMDLSRLRSDDTAVYYCARESGDDAFDIWGQGTMVTVSS VL: DIVMTQSPSSLSASVGDRVTITCRASQSISSYLNWYQQKPGKAPKLLIYAASSLQYGVPSRFSGSGSGTDFTLTISSLQPEDFATYYCQQSYSTSFGGGTKVEIKR
Fold Selectivity for RSK/KSR (fold): 1.5
--
BINDER: Abcs50 (antibody, human IgG1, kappa, V domains shown, chain-shuffled IgG) VH: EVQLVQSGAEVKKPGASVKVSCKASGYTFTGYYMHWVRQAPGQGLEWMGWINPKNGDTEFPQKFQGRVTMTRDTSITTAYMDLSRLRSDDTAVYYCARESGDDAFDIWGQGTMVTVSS VL: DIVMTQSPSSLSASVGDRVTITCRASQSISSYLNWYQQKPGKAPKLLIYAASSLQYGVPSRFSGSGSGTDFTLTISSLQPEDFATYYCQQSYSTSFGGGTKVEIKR
Fold Selectivity for RSK/KSR (fold): 1.3

Now for another entry.
Summary for this binder, Abcs40 (antibody, human IgG1, kappa, V domains shown, chain-shuffled IgG) VH: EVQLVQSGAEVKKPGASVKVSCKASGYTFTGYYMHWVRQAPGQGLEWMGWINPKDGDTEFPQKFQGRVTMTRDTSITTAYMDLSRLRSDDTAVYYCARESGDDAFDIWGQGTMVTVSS VL: DIVMTQSPSSLSASVGDRVTITCRASQSISSYLNWYQQKPGKAPKLLIYAASSLQSGVPSRFSGSGSGTDFTLTISSLQPEDFATYYCQQSVGLFFGGGTKVEIKR : Fold Selectivity for RSK/KSR is 9.3
